Test: yeast display, Sf9 membrane polyspecificity reagent, FACS + sequencing; frameworks hold sequencing errors
measured-metric: polyreactivity (PSR sort gate)

// worked examples, polyreactivity (PSR sort gate) included
macromolecule-sequence: QVQLVESGGGLVQAGGSLRLSCAASGSTFYGNAMVWYRQAPGKERELVARITTSGSTYYADSVKGRFTISRDNAKNTVYLQMNSLKPEDTAVYYCAKRGYGPSIRYYYWGHGTQVTVSS
polyreactivity (PSR sort gate): high polyreactivity

macromolecule-sequence: QVQLVESGAGLVQAGGSLRLSCAASGITFSKYAMGWYRVARGKDRELVAAISSTASTNYADSVKGRFTISRDNAKNTVYLQMNSQKPDDTAVYYCNDVLFFQLFWTYDDYWGQGSQVTVSS
polyreactivity (PSR sort gate): low polyreactivity

macromolecule-sequence: QVQLVESGGGLVQAGGSLRLSCAASGIIFVKYTMGWYRQAPGKERELVAAITRGGSTYYADSVKGRFTISRDNAKNTVYLQMNSLKPEDTAVYYCAAAWYQYFVPGYRGYTYYYWGQGTQVTVSS
polyreactivity (PSR sort gate): high polyreactivity

macromolecule-sequence: QVQLVESGGGLVQAGGSLRLSCAASGSIFIYNAMGWYRQAPGKERELVAAISSSGGSTYYADSVKGRFTISRDYAKNTVYLQLNSLKPEDTAVYYCAARTYYVRGLGGRPGMDYWGQGTHVTVSS
polyreactivity (PSR sort gate): low polyreactivity

Supply reported polyreactivity (PSR sort gate) belonging to this sequence: QVQLVESGGGLVQAGGSLRLSCAASGRIFYSYAMGWYRQAPGKERELVARITRGSSTYYADSVKGRFTISRDNAKNTVYLQMNSLKPEDTAVYYCAAAVYFQVAFAYYYWGQGTQVTVSS
low polyreactivity

* * *

Assay: yeast display, Sf9 membrane polyspecificity reagent, FACS + sequencing; frameworks hold sequencing errors
measured-metric: polyreactivity (PSR sort gate)

// worked examples, polyreactivity (PSR sort gate) included
macromolecule-sequence: QVQLVESGGGLVQAGGSLRLICAASGIIFAWYVMGWSRQAPGKERELVAAITQSGGSTFYADSVKGRFTISRDNAKNTVYLQLNSLKPEDTAVYYCNTDYFFNVPEMDSWGQGTQVTVYS
polyreactivity (PSR sort gate): low polyreactivity
--
macromolecule-sequence: QVPLVKSGAGFVQAGGILRLSCAASGRIFPFYVNGLARQAAGQERELVATINWSGGSTYYADSVKGRFTISRDNAKNTVYLQMNSLKPADTAVYYCAAAGIGGGGWGQGTQVTVSS
polyreactivity (PSR sort gate): low polyreactivity
--
macromolecule-sequence: QVQLVESGGGLVQAGGSLRLSCAASGRNFLYNAMGWYRQAPGKERELVAVISKRGGRTYYADSVKGRFTISRDNAKNTVYLQMNSLKPEDTAVYYCAAAYVTPPGPLRYNEYYWGQGTQVTVSS
polyreactivity (PSR sort gate): high polyreactivity
--
macromolecule-sequence: QVQLVESGGGLVQAGGSLRLSCAASGFTFGVYALGGYRQAPGKEREFVAAISRSGSSTYYADSVKGRFTISRDNAKNTVYLQMNSLKPEDTAVYYCAKRSGNRYSFDYWGQGTQVTVSS
polyreactivity (PSR sort gate): high polyreactivity

API: the following record is the query input.
Supply reported polyreactivity (PSR sort gate) belonging to this sequence: QVHLVESGGGLVQAGGSLRLSCAASGFTFGINAMGWYRQAPGKERELVAAINQSGDRTYYADSVKGRFTISRDNAKNPVYLELNSLKPDDTAVYYCAADTSYWYDYYIDYVGYYYWGQGTQVTVSS
high polyreactivity
